target: T1, Recombinant Human FGFR2 alpha (IIIc) Fc Chimera Protein, CF (R&D systems, 712-FR-050) (human, UniProt P21802 22-377); test: ELISA on plate-bound FGFR2-Fc
T1 construct: bought; not shown: Fc part of the chimera
T1 sequence (P21802 22-377, change not shown): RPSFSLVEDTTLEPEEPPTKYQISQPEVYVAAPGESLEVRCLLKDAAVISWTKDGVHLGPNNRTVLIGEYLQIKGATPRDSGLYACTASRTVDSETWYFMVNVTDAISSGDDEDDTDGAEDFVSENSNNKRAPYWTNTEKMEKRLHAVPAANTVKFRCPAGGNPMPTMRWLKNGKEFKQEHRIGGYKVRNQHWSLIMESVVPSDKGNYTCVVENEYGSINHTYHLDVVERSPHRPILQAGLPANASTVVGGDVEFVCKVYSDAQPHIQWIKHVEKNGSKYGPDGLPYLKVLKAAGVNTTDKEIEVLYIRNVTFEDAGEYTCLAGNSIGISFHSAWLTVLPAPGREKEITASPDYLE
Bridge positions count the residues as written; N and C are the ends. Ends that are not written are not given here. COCH2 = acetyl group that carries the bridge
Assignment: determine reported ELISA luminescence signal at 10 nmol/L peptide, relative to SEQ ID NO: 47 (=1) for the given binders.

GET /value?item= YCEENYLDPEQYQYFIYFK(COCH2)H (thioether 2-19 (inferred)) [cyclic peptide SEQ ID NO: 321] &field=ELISA luminescence signal at 10 nmol/L peptide, relative to SEQ ID NO: 47 (=1) returns ≥ 0.7 ratio

Value of measured ELISA luminescence signal at 10 nmol/L peptide, relative to SEQ ID NO: 47 (=1) for the entry PCEENYLDPEQYQYFIYFK(COCH2)Y (thioether 2-19) [cyclic peptide SEQ ID NO: 137] : ≥ 0.7 ratio

Input QCDQDAIQWVYDLQYYRVWHK(COCH2)V (thioether 2-21 (inferred)) [cyclic peptide SEQ ID NO: 413] . Output ELISA luminescence signal at 10 nmol/L peptide, relative to SEQ ID NO: 47 (=1): 0.1 to 0.5 ratio

Measured ELISA luminescence signal at 10 nmol/L peptide, relative to SEQ ID NO: 47 (=1) of YCEENYLDPEQLQYFIYFK(COCH2)Y (thioether 2-19 (inferred)) [cyclic peptide SEQ ID NO: 252] : 0.1 to 0.5 ratio

Data point: DCSGNFFSKEQFHYLELFK(COCH2)K (thioether 2-19; not fully specified; printed as D-(C)-SGNFFSKEQFHYLELF-(K(acetyl))-K) [cyclic peptide SEQ ID NO: 40] ; ELISA luminescence signal at 10 nmol/L peptide, relative to SEQ ID NO: 47 (=1) = ≥ 0.7 ratio

Lab note: measured ELISA luminescence signal at 10 nmol/L peptide, relative to SEQ ID NO: 47 (=1) of YCEAQPYYFQLYRLWHRQEK(COCH2)P (thioether 2-20 (inferred)) [cyclic peptide SEQ ID NO: 420] was 0.1 to 0.5 ratio
